measurement-description: yeast display, Sf9 membrane polyspecificity reagent, FACS + sequencing; frameworks hold sequencing errors
measure: polyreactivity (PSR sort gate)

Examples from the recorded data:
QVQLVESGGGLVQAGGSLRLSCAASGSTFYPYAMGWYRQAPGKERELVAAITYSGGSTYYADSVKGRFTISRDNAKNTVYLQMNSLKPDDTAVYYCATPYFSTPRVRGFDYWGQGTQVTVSS low polyreactivity
QVQLVESGGGLVQAGGSLRLSCAASGSTFGSYAMGWYRQAPGKERELVAAIRRGGSTTYADSVKGRFTISRDNAKNTVYLQMYSLKPEDTAVYYCAAPELNEGLPLDYWGQGTQVTVSS low polyreactivity
QVQLVESGGGIVQAGGSLRLSCAASGIIFRFYAMGWYRQAPGKERELVARIRSRGGSTYYADSVKGRFTISRDNAKNTVYLQMNSLKPEDTAVYYCAAGAGYPYYWGQGTQVTVSS high polyreactivity
QVQLVESGGGLVQAGGSLRLSCAASGSIFITNAMGWYRQAPGKERELVAGITSGGSTYYADSVKGRFTISRDNAKNTFYLQMNSLKPEDTAVYYCAADGVTVTADEYDYWGHGTQVTVSS low polyreactivity
QVQLVESGGGLVQAGGSLRLSCAASGRIFVIYAMGWYRQAPGKERELVAVISSDGSTYYADSVKGRFTISRDNAKNTVYLQMNSLKPEDTAVYYCAADRIGRYRPYIGWVVRSYYWGQGTQVTVSS low polyreactivity
QVQLVESGGGLVQAGGSLRLSCAASGRIFFTNAMGWYRQAPGKETELVASIDDTGSTNYADSVKGRFTISRDNAKNTVYLQMNSLKPEDTAVYYCNGVYYSYRYGHDYWGQGTQVTVSS low polyreactivity

polyreactivity (PSR sort gate) in this record for QVQLVESVGGLVQAGGSLRLSCAASGSIFYQYAMGWYRQAPGKERELVAAISRSGGSTYYADSVKGRFTISRDIAKNTVYLQMNSLKPEDTAVYYCAADQKSLRMYYWGQGTQVTVSS : high polyreactivity

polyreactivity (PSR sort gate) in this record for QVQLVESGGGLVQAGGSLRLSCAASGRTFWANAMGWYRQAPGKERELVAAITSGGSTNYADSVKGRFTISRDNAKNTVYLQMNSLKPEDTAVYYCAAAINRYRRTFNYWGQGTQVTVSS : high polyreactivity

polyreactivity (PSR sort gate) in this record for QDQLVESGGGLVQAGGSLRLSCAAYGSIFYVYAMGWYRQAPGKERELVAAIRRTGSSTYYADSVKGRFTISRDNAKNTVSLQMNSLKPEDTAVYYCAASYWRARAGSYDYWGQGTQVTVSS : high polyreactivity

polyreactivity (PSR sort gate) in this record for QVQLVESGGGLVQAGRSLRLSCAASGTIFAFYAMGWYRQAPGIVRELVAAITWRGGRTTYADSVKGRFTISRDNAKNTVYLQMNSLKPEDTAVYYCAAVIHWWYATYDYWGQGTQVTVSS : high polyreactivity

polyreactivity (PSR sort gate) in this record for QVQLVESGGGLVQAGGSLRLICAASGRTSGGNGMGWYRQAPGKERELVAAITWDGDSTYADSVKGRFTISRDNAKNTDYFQMNSLKPEDTAVYYCAAGVYQSDYYYWGQGTQVTVSS : low polyreactivity

polyreactivity (PSR sort gate) in this record for QVQLVESGGGLVQAGGSLRLSCAASGGIFIRNAMGWYRQAPGKERELVATISNAGSTYADSVKGRFTISRDNAKNTVYLQMNSLKPEDTAVYYCNRDDWTYPVSQGLQEYDYWGQGTQVTVSS : low polyreactivity

polyreactivity (PSR sort gate) in this record for QVQLVESGGGLVQAGGSLRLSCAASGITFVPYVMGWYRQAPGKERELVAAITVRGSRTYYADSVKGRFTISRDNAKNTVYLQMNSLKPEDTAVYYCAAGRYLSRTFFTYYYWGQGTQVTVSS : high polyreactivity

polyreactivity (PSR sort gate) in this record for QVQLVESGGGLVQAGGSLRLSCAASGSTFGYNAMGWYRQAPGKERELVADITWRGGRTYYADSVKGRFTISRDNAKNTVYLQMNSLKPEDTAVYYCAATSRGSGQRPGEAIIDYYYWGLGTQVTVSS : high polyreactivity
